- System: NCI-H2122
- run-description: combination cScore with sotorasib (Bliss gap around IC50) (%PoC); higher = stronger additive effect
metric-name: combination cScore with sotorasib
Provide a numeric answer; units are not to be included.

| compound | combination cScore with sotorasib |
| --- | --- |
| O=C(/C=C/c1cccc(S(=O)(=O)Nc2ccccc2)c1)NO [Belinostat] + C=CC(=O)N1CCN(c2nc(=O)n(-c3c(C)ccnc3C(C)C)c3nc(-c4c(O)cccc4F)c(F)cc23)[C@@H](C)C1 | 10.8 |

[in] State measured combination cScore with sotorasib of the compound C[C@@H]1OCC2(CCN(c3cnc(Sc4ccnc(N)c4Cl)c(N)n3)CC2)[C@@H]1N [TNO155] + C=CC(=O)N1CCN(c2nc(=O)n(-c3c(C)ccnc3C(C)C)c3nc(-c4c(O)cccc4F)c(F)cc23)[C@@H](C)C1 with NCI-H2122.
[out] 41.9

---

- System: NCI-H2122
- run-description: combination cScore with adagrasib (Bliss gap around IC50) (%PoC); higher = stronger additive effect
Quick rule: combination cScore with adagrasib of at least 3 means met, below that means not met.

Observe how each entry below is paired with its result.
| compound | answer-label |
| --- | --- |
| COc1cccc2c1C(=O)c1c(O)c3c(c(O)c1C2=O)C[C@@](O)(C(=O)CO)C[C@@H]3O[C@H]1C[C@H](N)[C@H](O)[C@H](C)O1 [Doxorubicin] + C=C(F)C(=O)N1CCN(c2nc(OC[C@@H]3CCCN3C)nc3c2CCN(c2cccc4cccc(Cl)c24)C3)C[C@@H]1CC#N | not met |
| C[C@]12CC[C@@H]3c4ccc(O)cc4C[C@@H](CCCCCCCCC[S+]([O-])CCCC(F)(F)C(F)(F)F)[C@H]3[C@@H]1CC[C@@H]2O (some centres not stated) [Fulvestrant] + C=C(F)C(=O)N1CCN(c2nc(OC[C@@H]3CCCN3C)nc3c2CCN(c2cccc4cccc(Cl)c24)C3)C[C@@H]1CC#N | met |
| CO[C@H]1C[C@@H]2CC[C@@H](C)[C@@](O)(O2)C(=O)C(=O)N2CCCC[C@H]2C(=O)O[C@H]([C@H](C)C[C@@H]2CC[C@@H](O)[C@H](OC)C2)CC(=O)[C@H](C)/C=C(\C)[C@@H](O)[C@@H](OC)C(=O)[C@H](C)C[C@H](C)/C=C/C=C/C=C/1C [Rapamycin] + C=C(F)C(=O)N1CCN(c2nc(OC[C@@H]3CCCN3C)nc3c2CCN(c2cccc4cccc(Cl)c24)C3)C[C@@H]1CC#N | met |
| O=C(Cc1ccccc1)Nc1nnc(CCSCCc2nnc(NC(=O)Cc3ccccc3)s2)s1 [BPTES] + C=C(F)C(=O)N1CCN(c2nc(OC[C@@H]3CCCN3C)nc3c2CCN(c2cccc4cccc(Cl)c24)C3)C[C@@H]1CC#N | met |
| CCc1c2c(nc3ccc(O)cc13)-c1cc3c(c(=O)n1C2)COC(=O)[C@]3(O)CC [SN-38] + C=C(F)C(=O)N1CCN(c2nc(OC[C@@H]3CCCN3C)nc3c2CCN(c2cccc4cccc(Cl)c24)C3)C[C@@H]1CC#N | met |

[in] Identify whether the reported combination cScore with adagrasib of the following compound is 3 or greater: O=P1(N(CCCl)CCCl)NCCCO1 (configuration not stated) [Cyclophosphamide] + C=C(F)C(=O)N1CCN(c2nc(OC[C@@H]3CCCN3C)nc3c2CCN(c2cccc4cccc(Cl)c24)C3)C[C@@H]1CC#N
[out] not met

[in] Identify whether the reported combination cScore with adagrasib of the following compound is 3 or greater: COc1cc(Nc2ncc3c(n2)-c2ccc(Cl)cc2C(c2c(F)cccc2OC)=NC3)ccc1C(=O)O [MLN8237] + C=C(F)C(=O)N1CCN(c2nc(OC[C@@H]3CCCN3C)nc3c2CCN(c2cccc4cccc(Cl)c24)C3)C[C@@H]1CC#N
[out] not met

---

- System: SW837
- run-description: combination cScore with adagrasib (Bliss gap around IC50) (%PoC); higher = stronger additive effect
Collected combination cScore with adagrasib values appear next to each entry.
Provide a numeric answer; units are not to be included.

Examples from the recorded data:
| compound | metric-name | value-observed |
| --- | --- | --- |
| CC/C(=C(\c1ccccc1)c1ccc(OCCN(C)C)cc1)c1ccccc1 [Tamoxifen] + C=C(F)C(=O)N1CCN(c2nc(OC[C@@H]3CCCN3C)nc3c2CCN(c2cccc4cccc(Cl)c24)C3)C[C@@H]1CC#N | combination cScore with adagrasib | 5.45 |
| CNC(=O)c1cc(Oc2ccc(NC(=O)Nc3ccc(Cl)c(C(F)(F)F)c3)c(F)c2)ccn1 [Regorafenib] + C=C(F)C(=O)N1CCN(c2nc(OC[C@@H]3CCCN3C)nc3c2CCN(c2cccc4cccc(Cl)c24)C3)C[C@@H]1CC#N | combination cScore with adagrasib | -1.71 |
| C[C@H](Nc1ncnc2nc[nH]c12)c1cc2cccc(Cl)c2c(=O)n1-c1ccccc1 [Duvelisib] + C=C(F)C(=O)N1CCN(c2nc(OC[C@@H]3CCCN3C)nc3c2CCN(c2cccc4cccc(Cl)c24)C3)C[C@@H]1CC#N | combination cScore with adagrasib | 12.8 |
| CC1(C)CCC(CN2CCN(c3ccc(C(=O)NS(=O)(=O)c4ccc(NCC5CCOCC5)c([N+](=O)[O-])c4)c(Oc4cnc5[nH]ccc5c4)c3)CC2)=C(c2ccc(Cl)cc2)C1 [ABT-199] + C=C(F)C(=O)N1CCN(c2nc(OC[C@@H]3CCCN3C)nc3c2CCN(c2cccc4cccc(Cl)c24)C3)C[C@@H]1CC#N | combination cScore with adagrasib | -3.71 |
| COc1cc(Nc2ncc3c(n2)-c2ccc(Cl)cc2C(c2c(F)cccc2OC)=NC3)ccc1C(=O)O [MLN8237] + C=C(F)C(=O)N1CCN(c2nc(OC[C@@H]3CCCN3C)nc3c2CCN(c2cccc4cccc(Cl)c24)C3)C[C@@H]1CC#N | combination cScore with adagrasib | 4.72 |

[in] State measured combination cScore with adagrasib of the compound O=C(O)CNC(=O)c1c(O)c2ccccc2n(Cc2ccccc2)c1=O [IOX2] + C=C(F)C(=O)N1CCN(c2nc(OC[C@@H]3CCCN3C)nc3c2CCN(c2cccc4cccc(Cl)c24)C3)C[C@@H]1CC#N with SW837.
[out] 13.4

[in] State measured combination cScore with adagrasib of the compound COC(=O)c1ccc2c(c1)NC(=O)/C2=C(\Nc1ccc(N(C)C(=O)CN2CCN(C)CC2)cc1)c1ccccc1 [Nintedanib] + C=C(F)C(=O)N1CCN(c2nc(OC[C@@H]3CCCN3C)nc3c2CCN(c2cccc4cccc(Cl)c24)C3)C[C@@H]1CC#N with SW837.
[out] 4.49

[in] State measured combination cScore with adagrasib of the compound Nc1ncn([C@H]2C[C@H](O)[C@@H](CO)O2)c(=O)n1 [Decitabine] + C=C(F)C(=O)N1CCN(c2nc(OC[C@@H]3CCCN3C)nc3c2CCN(c2cccc4cccc(Cl)c24)C3)C[C@@H]1CC#N with SW837.
[out] -0.47

---

- Tested on: SW837
- run-description: combination cScore with adagrasib (Bliss gap around IC50) (%PoC); higher = stronger additive effect
metric-name: combination cScore with adagrasib
Provide a numeric answer; units are not to be included.

[in] Give combination cScore with adagrasib for C[C@H](Cc1ccc(O)c(O)c1)[C@@H](C)Cc1ccc(O)c(O)c1 [Masoprocol] + C=C(F)C(=O)N1CCN(c2nc(OC[C@@H]3CCCN3C)nc3c2CCN(c2cccc4cccc(Cl)c24)C3)C[C@@H]1CC#N [adagrasib]
[out] -3.46

[in] Give combination cScore with adagrasib for N[C@@H](Cc1ccc(N(CCCl)CCCl)cc1)C(=O)O [Melphalan] + C=C(F)C(=O)N1CCN(c2nc(OC[C@@H]3CCCN3C)nc3c2CCN(c2cccc4cccc(Cl)c24)C3)C[C@@H]1CC#N [adagrasib]
[out] -0.68

[in] Give combination cScore with adagrasib for COc1cc(OC)c(/C=C/S(=O)(=O)Cc2ccc(OC)c(NCC(=O)O)c2)c(OC)c1 [Rigosertib] + C=C(F)C(=O)N1CCN(c2nc(OC[C@@H]3CCCN3C)nc3c2CCN(c2cccc4cccc(Cl)c24)C3)C[C@@H]1CC#N [adagrasib]
[out] 7.78

[in] Give combination cScore with adagrasib for CS(=O)(=O)CCNCc1ccc(-c2ccc3ncnc(Nc4ccc(OCc5cccc(F)c5)c(Cl)c4)c3c2)o1 [Lapatinib] + C=C(F)C(=O)N1CCN(c2nc(OC[C@@H]3CCCN3C)nc3c2CCN(c2cccc4cccc(Cl)c24)C3)C[C@@H]1CC#N [adagrasib]
[out] 11.2

[in] Give combination cScore with adagrasib for CCN1CCN(c2ccc(Nc3cc(N(C)C(=O)Nc4c(Cl)c(OC)cc(OC)c4Cl)ncn3)cc2)CC1 [BGJ398] + C=C(F)C(=O)N1CCN(c2nc(OC[C@@H]3CCCN3C)nc3c2CCN(c2cccc4cccc(Cl)c24)C3)C[C@@H]1CC#N [adagrasib]
[out] 3.09

[in] Give combination cScore with adagrasib for Cc1ccc(C(=O)Nc2ccc(CN3CCN(C)CC3)c(C(F)(F)F)c2)cc1C#Cc1cnc2cccnn12 [Ponatinib] + C=C(F)C(=O)N1CCN(c2nc(OC[C@@H]3CCCN3C)nc3c2CCN(c2cccc4cccc(Cl)c24)C3)C[C@@H]1CC#N [adagrasib]
[out] -0.53

[in] Give combination cScore with adagrasib for Cc1c(CN2CCC(Nc3ncnc4sc(CC(F)(F)F)cc34)CC2)ccc2[nH]c(C#N)cc12 [MI-463] + C=C(F)C(=O)N1CCN(c2nc(OC[C@@H]3CCCN3C)nc3c2CCN(c2cccc4cccc(Cl)c24)C3)C[C@@H]1CC#N [adagrasib]
[out] 0.27

[in] Give combination cScore with adagrasib for C[C@@H]1OCC2(CCN(c3cnc(Sc4ccnc(N)c4Cl)c(N)n3)CC2)[C@@H]1N [TNO155] + C=C(F)C(=O)N1CCN(c2nc(OC[C@@H]3CCCN3C)nc3c2CCN(c2cccc4cccc(Cl)c24)C3)C[C@@H]1CC#N [adagrasib]
[out] 31

[in] Give combination cScore with adagrasib for NC(=O)c1cnc(N[C@@H]2CCCC[C@@H]2N)nc1Nc1cccc(-n2nccn2)c1 + C=C(F)C(=O)N1CCN(c2nc(OC[C@@H]3CCCN3C)nc3c2CCN(c2cccc4cccc(Cl)c24)C3)C[C@@H]1CC#N [adagrasib]
[out] 3.74

[in] Give combination cScore with adagrasib for Cc1nc(Nc2ncc(C(=O)Nc3c(C)cccc3Cl)s2)cc(N2CCN(CCO)CC2)n1 [Dasatinib] + C=C(F)C(=O)N1CCN(c2nc(OC[C@@H]3CCCN3C)nc3c2CCN(c2cccc4cccc(Cl)c24)C3)C[C@@H]1CC#N [adagrasib]
[out] 14.7

[in] Give combination cScore with adagrasib for COc1cc(Nc2ncc(F)c(Nc3ccc4c(n3)N(COP(=O)(O)O)C(=O)C(C)(C)O4)n2)cc(OC)c1OC [Fostamatinib] + C=C(F)C(=O)N1CCN(c2nc(OC[C@@H]3CCCN3C)nc3c2CCN(c2cccc4cccc(Cl)c24)C3)C[C@@H]1CC#N [adagrasib]
[out] 7.91

The values you see were collected from the supplement of paper PMC11424490.
